Origin of the recorded values: patent US20240366776A1

Here the recorded IL2RB Blocking is given for each entry.
- TARGET DESC: T1, human IL-2 (human, UniProt P60568 21-153, biotin-labeled in the IL2RB blocking assay)
- T1 construct: also called biotin-labeled IL-2 (Acro Biosystems IL2-H82E4)
- T1 sequence (P60568 21-153 limits assumed): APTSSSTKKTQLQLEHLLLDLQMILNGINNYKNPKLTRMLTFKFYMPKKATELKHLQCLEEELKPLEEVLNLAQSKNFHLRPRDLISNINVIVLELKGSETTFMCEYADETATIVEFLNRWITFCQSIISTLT
- METHOD DESCRIPTION: HTRF IL-2:IL2RB
ENDPOINT: IL2RB Blocking

binder="PD1-IL2-R02-C03 (SEQ ID NO: 32) (scFv, V5-tagged in the assay) scFv: QVQLVQSGAEVKKPGASVKVSCKASGYTFPRYHIHWVRQAPGQGLEWMGMINPSGGTTTYAQKFQGRVTMTRDTSTSTVYMELSSLRSEDTAVYYCARDTGLGYYYGSGDFDYWGQGTLVTVSSASGGGGSGGGGSGGGGSHASDIQMTQSPSSLSASVGDRVTITCRASQSISSWLAWYQQKPGKAPKLLIYAASSLQSGVPSRFSGSGSGTDFTLTISSLQPEDFATYYCQQSHSFPLTFGGGTKVEIK" result=1210
binder="PD1-IL2-R02-A08 (scFv, V domains shown, cf) VH: QVQLVQSGAEVKKPGASVKVSCKVSGYTFTSYDINWVRQAPGQGLEWMGWINPNSGDTGYAQKFQGRVTMTRDTSTSTVYMELSSLRSEDTAVYYCARDTGLGYYYGSGDFDYWGQGTLVTVSS VL: DIQMTQSPSSLSASVGDRVTITCQASQDIHNYLNWYQQKPGKAPKLLIYDVSNLETGVPSRFSGSGSGTDFTLTISSLQPEDFATYYCQQAISFPLTFGGGTKVEIK" result=1610
binder="PD1-IL2-R02-B07 (scFv) QVQLVQSGAEVKKPGASVKVSCKASGDTFTRHYVHWVRQAPGQGLEWMGIINPSGGYASYAQKFQGRVTMTRDTSTSTVYMELSSLRSEDTAVYYCAAGLFIWGQGTLVTVSSASGGGGSGGGGSGGGGSHASDIQMTQSPSSLSASVGDRVTITCRASQSIGRWLAWYQQKPGKAPKLLIYSASNLETGVPSRFSGSGSGTDFTLTISSLQPEDFATYYCQQANSFPVTFGPGTKVDIK" result=1810
binder="PD1-IL2-R06-E04 (SEQ ID NO: 33) (scFv, V5-tagged in the assay) scFv: QVQLVQSGAEVKKPGASVKVSCKASGYTFTRYYIHWVRQAPGQGLEWMGWINAYNGDTNYAQKLQGRVTMTRDTSTSTVYMELSSLRSEDTAVYYCARDSYYYDSFDYWGQGTLVTVSSASGGGGSGGGGSGGGGSHASDIQMTQSPSSLSASVGDRVTITCRASQTITDWLAWYQQKPGKAPKLLIYGASNLQGGVPSRFSGSGSGTDFTLTISSLQPEDFATYYCQQYYSSWTFGQGTKVEIK" result=1110
binder="PD1-IL2-R07-A09 (SEQ ID NO: 34) (scFv, V5-tagged in the assay) scFv: QVQLVQSGAEVKKPGASVKVSCKASGYTFTSYYMHWVRQAPGQGLEWMGIINPSDGSTTYAQSFQGRVTMTRDTSTSTVYMELSSLRSEDTAVYYCASGWDVWGQGTLVTVSSASGGGGSGGGGSGGGGSHASDIVMTQSPDSLAVSLGERATINCKSSQSVFSSANNKNYLAWYQQKPGQPPKLLIYWASTRESGVPDRFSGSGSGTDFTLTISSLQAEDVAVYYCQQYFGTPVTFGGGTKVEIK" result=910
